Target: hPPARgamma (Homo sapiens)
Construct: expressed in transfected cells; host or cells: COS-7 (monkey kidney fibroblasts)
Sequence (P37231 238-503 limits assumed): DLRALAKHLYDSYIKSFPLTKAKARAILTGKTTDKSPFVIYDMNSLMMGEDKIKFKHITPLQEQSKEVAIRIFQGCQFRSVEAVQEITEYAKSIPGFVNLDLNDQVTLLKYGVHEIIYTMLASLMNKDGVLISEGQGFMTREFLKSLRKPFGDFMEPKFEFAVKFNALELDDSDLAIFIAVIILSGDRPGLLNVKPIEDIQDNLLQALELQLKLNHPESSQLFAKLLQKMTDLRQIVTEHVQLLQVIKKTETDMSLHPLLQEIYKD
Assay: PPAR activation: Gal4-hPPARγ chimera luciferase transactivation in COS-7 cells, Method 1
Type: cell-based
Conditions: COS-7, 24 h
MEASURE NAME: EC50 (µM)

Enquiry: Form field - read-out: EC50; system: hPPARgamma (Homo sapiens); submitted item: CC(C)(Oc1ccc(CCC(=O)c2ccc(-c3ccc(C(F)(F)F)cc3)s2)cc1F)C(=O)O [Compound 23]
Return: 0.4

Enquiry: Try CCC(Oc1ccc(CCC(=O)c2ccc(-c3ccc(C(F)(F)F)cc3)s2)cc1Br)C(=O)O (stereo not shown) [Compound 32] next.
Return: 0.21

Enquiry: Try CC(C)(Oc1ccc(CCC(OCc2ccccc2)c2cc(-c3ccc(C(F)(F)F)cc3)cs2)c(Cl)c1Cl)C(=O)O (stereo not shown) [Compound 61] next.
Return: 0.03

Enquiry: Try O=C(O)COc1ccc(CCC(OCc2ccccc2)c2ccc(-c3ccc(C(F)(F)F)cc3)s2)cc1F (stereo not shown) [Compound 27] next.
Return: 2.82

Enquiry: Try CC(C)(Oc1ccc(CCC(=O)c2ccc(-c3ccc(C(F)(F)F)cc3)s2)c(Cl)c1Cl)C(=O)O [Compound 2] next.
Return: 0.06

[A] O=C(CCc1ccc(OC(C(=O)O)c2ccccc2)c(Cl)c1Cl)c1ccc(-c2ccc(C(F)(F)F)cc2)s1 (stereo not shown) [Compound 17]
[B] O=C(O)COc1ccc(CCC(=O)c2ccc(-c3ccc(C(F)(F)F)cc3)s2)cc1 [Compound 69]
Enquiry: Which of the two gives a bigger number for EC50: A or B ? Please reply using the label of the selected record.
Return: B

###

This listing pairs compounds with measured melting point.

Enquiry: Quick one: melting point of CC(C)(Oc1ccc(CCC(OCc2cccnc2)c2ccc(-c3ccc(C(F)(F)F)cc3)s2)c(Cl)c1Cl)C(=O)O (stereo not shown) ?
Return: 75 to 77 °C

Enquiry: Try CC(C)OC(CCc1ccc(OC(C)(C)C(=O)O)c(Cl)c1Cl)c1ccc(-c2ccc(C(F)(F)F)cc2)s1 (stereo not shown) next.
Return: 88 to 90 °C

Enquiry: Try CON=C(CCc1ccc(OC(C)(C)C(=O)O)c(Cl)c1Cl)c1ccc(-c2ccc(C(F)(F)F)cc2)s1 (mixture of isomers) next.
Return: 68 to 69 °C

###

Biological target: hPPARgamma (Homo sapiens)
Construct: expressed in transfected cells; host or cells: COS-7 (monkey kidney fibroblasts)
Assay: PPAR activation: Gal4-hPPARγ chimera luciferase transactivation in COS-7 cells, Method 1
Type: cell-based
Settings: COS-7, 24 h, maximum percentage response relative to the reference rosiglitazone, read-out: hPPARgamma % max
MEASURE NAME: Emax (%)

Enquiry: Quick one: Emax of CC(C)(CCCOc1ccc(CCC(=O)c2ccc(-c3ccc(C(F)(F)F)cc3)s2)c(Cl)c1Cl)C(=O)O ?
Return: 58

Enquiry: Try CC(C)(Oc1ccc(CCC(OCc2ccccc2)c2cc(-c3ccc(C(F)(F)F)cc3)cs2)c(Cl)c1Cl)C(=O)O (stereo not shown) next.
Return: 78

Enquiry: Try CC(C)(Oc1ccc(CCC(=O)c2ccc(-c3ccc(C(F)(F)F)cc3)s2)cc1F)C(=O)O next.
Return: 49

Enquiry: Try CC(C)(Oc1ccc(CCC(=O)c2ccc(-c3ccc(C(F)(F)F)cc3)s2)c(Cl)c1)C(=O)O next.
Return: 63

[1] CCC(Oc1ccc(CCC(=O)c2ccc(-c3ccc(C(F)(F)F)cc3)s2)cc1F)C(=O)O (stereo not shown)
[2] CCC(Oc1ccc(CCC(=O)c2ccc(-c3ccc(C(F)(F)F)cc3)s2)c(Cl)c1Cl)C(=O)O (stereo not shown)
[3] O=C(CCc1ccc(OC(C(=O)O)c2ccccc2)c(Cl)c1Cl)c1ccc(-c2ccc(C(F)(F)F)cc2)s1 (stereo not shown)
Enquiry: Ascending sort, Emax. Use the labels to give the requested order.
Return: 3, 2, 1

###

Molecular target: hPPARgamma (Homo sapiens)
Construct: expressed in transfected cells; host or cells: COS-7 (monkey kidney fibroblasts)
Sequence (P37231 238-503 limits assumed): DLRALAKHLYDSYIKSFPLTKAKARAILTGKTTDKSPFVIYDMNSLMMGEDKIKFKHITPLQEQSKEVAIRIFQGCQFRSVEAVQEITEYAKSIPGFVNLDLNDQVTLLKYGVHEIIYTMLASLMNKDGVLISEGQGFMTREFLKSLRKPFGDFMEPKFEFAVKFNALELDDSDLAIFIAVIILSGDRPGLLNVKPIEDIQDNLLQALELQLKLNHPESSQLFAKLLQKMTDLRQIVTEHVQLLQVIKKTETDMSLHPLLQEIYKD
Experiment: PPAR activation: Gal4-hPPARγ chimera luciferase transactivation in COS-7 cells, Method 2
Assay type: cell-based
Details: Method 2; COS-7, 24 h, 1% Ultroser; read-out: hPPARgamma EC50
MEASURE NAME: EC50 (nM)

Enquiry: Quick one: EC50 of CC(C)(Oc1ccc(CCC(OCc2ccc(I)cc2)c2ccc(-c3ccc(C(F)(F)F)cc3)s2)c(Cl)c1Cl)C(=O)O (stereo not shown) ?
Return: 4110

[P] CSc1ccc(-c2ccc(C(=O)CCc3ccc(OC(C)(C)C(=O)O)c(Cl)c3Cl)s2)cc1
[Q] COC(CCc1ccc(OC(C)(C)C(=O)O)c(Cl)c1Cl)c1ccc(-c2ccc(C(F)(F)F)cc2)o1 (stereo not shown)
[R] CC(C)(Oc1ccc(CCC(OCc2cccnc2)c2ccc(-c3ccc(C(F)(F)F)cc3)s2)c(Cl)c1Cl)C(=O)O (stereo not shown)
Enquiry: Ascending sort, EC50. Use the labels to give the requested order.
Return: Q, R, P

[I] O=C(O)COc1ccc(CCC(=O)c2ccc(-c3ccc(C(F)(F)F)cc3)s2)cc1F
[II] CON=C(CCc1ccc(OC(C)(C)C(=O)O)c(Cl)c1Cl)c1ccc(-c2ccc(C(F)(F)F)cc2)s1 (mixture of isomers)
Enquiry: Which of the two gives a bigger number for EC50: I or II ? Please reply using the label of the selected record.
Return: I

###

Target: hPPARalpha (Homo sapiens)
Construct: expressed in transfected cells; host or cells: COS-7 (monkey kidney fibroblasts)
Sequence (Q07869 239-466 limits assumed): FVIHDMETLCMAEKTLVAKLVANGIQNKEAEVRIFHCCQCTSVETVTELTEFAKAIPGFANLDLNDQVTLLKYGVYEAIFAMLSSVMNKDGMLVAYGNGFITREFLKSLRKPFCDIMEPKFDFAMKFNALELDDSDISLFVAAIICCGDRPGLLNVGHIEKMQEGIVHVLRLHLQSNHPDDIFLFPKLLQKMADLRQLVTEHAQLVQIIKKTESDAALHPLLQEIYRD
Assay: PPAR activation: Gal4-hPPARα chimera luciferase transactivation in COS-7 cells, Method 2
Assay type: cell-based
Settings: COS-7, 24 h, 1% Ultroser
MEASURE NAME: EC50 (nM)

Before answering, review these 10 worked examples.
Enquiry: Quick one: EC50 of CON=C(CCc1ccc(OC(C)(C)C(=O)O)c(Cl)c1Cl)c1ccc(-c2ccc(C(F)(F)F)cc2)s1 (mixture of isomers) ?
Return: 260

Enquiry: Try COC(CCc1ccc(OC(C)(C)C(=O)O)c(Cl)c1Cl)c1ccc(-c2ccc(C(F)(F)F)cc2)s1 (stereo not shown) next.
Return: 590

Enquiry: Try CCOC(CCc1ccc(OC(C)(C)C(=O)O)c(Cl)c1Cl)c1ccc(-c2ccc(C(F)(F)F)cc2)s1 (stereo not shown) next.
Return: 610

Enquiry: Try CC(C)(Oc1ccc(CCC(OCc2ccccc2)c2ccc(-c3ccc(C(F)(F)F)cc3)s2)c(Cl)c1Cl)C(=O)O (stereo not shown) next.
Return: 5460

Enquiry: Try CC(C)(Oc1ccc(CCC(=O)c2ccc(-c3ccc(Br)cc3)s2)c(Cl)c1Cl)C(=O)O next.
Return: 210

Enquiry: Try CC(C)(Oc1ccc(CCC(=O)c2ccc(-c3ccccc3)s2)c(Cl)c1Cl)C(=O)O next.
Return: 1000

Enquiry: Try CCC(Oc1ccc(CCC(O)c2ccc(-c3ccc(C(F)(F)F)cc3)s2)cc1F)C(=O)O (stereo not shown) next.
Return: 50

Enquiry: Try CC(C)(Oc1ccc(CCC(OCc2ccccc2)c2ccc(-c3ccc(C(F)(F)F)cc3)s2)c(F)c1F)C(=O)O (stereo not shown) next.
Return: 4210

Enquiry: Try O=C(O)COc1ccc(CCC(=O)c2ccc(-c3ccc(C(F)(F)F)cc3)s2)cc1F next.
Return: 1680

Enquiry: Try CC(C)OC(CCc1ccc(OC(C)(C)C(=O)O)c(Cl)c1Cl)c1ccc(-c2ccc(C(F)(F)F)cc2)s1 (stereo not shown) next.
Return: 2800

[a] CC(C)(Oc1ccc(CCC(OCc2ccc(I)cc2)c2ccc(-c3ccc(C(F)(F)F)cc3)s2)c(Cl)c1Cl)C(=O)O (stereo not shown)
[b] CC(C)(Oc1ccc(CCC(=O)c2ccc(-c3ccc(C(F)(F)F)cc3)s2)cc1)C(=O)O
[c] CC(C)(Oc1ccc(CCC(OCc2cccnc2)c2ccc(-c3ccc(C(F)(F)F)cc3)s2)c(Cl)c1Cl)C(=O)O (stereo not shown)
[d] COC(CCc1ccc(OC(C)(C)C(=O)O)c(Cl)c1Cl)c1ccc(-c2ccc(C(F)(F)F)cc2)o1 (stereo not shown)
Enquiry: Could you please sort these 4 entries by EC50 from high to low? Use the labels to give the requested order.
Return: a, c, d, b
(a: 7860 nM, c: 1010 nM, d: 270 nM, b: 10 nM)

[I] CSc1ccc(-c2ccc(C(=O)CCc3ccc(OC(C)(C)C(=O)O)c(Cl)c3Cl)s2)cc1
[II] CC(C)(Oc1ccc(CCC(OCC2CCCCC2)c2ccc(-c3ccc(C(F)(F)F)cc3)s2)c(Cl)c1Cl)C(=O)O (stereo not shown)
Enquiry: Which of the two gives a bigger number for EC50: I or II ? Please reply using the label of the selected record.
Return: II
(II: 2000 nM, I: 150 nM)
